B1: glmS ribozyme (parent)
chain: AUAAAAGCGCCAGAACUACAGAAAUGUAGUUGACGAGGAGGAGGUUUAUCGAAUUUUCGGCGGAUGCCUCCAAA

- Variants of: B1
- Assay notes: self-cleavage kobs at 2500 uM GlcN6P; higher = faster cleavage; RNA array
- Reported conditions: with glucosamine-6-phosphate
This sample holds only a part of the variants without activity.
Property name: self-cleavage kobs at 2500 uM GlcN6P (s⁻¹)
Give bare numbers, in s⁻¹.

Illustrative cases are given below, each with its answer.
U57G C58G C67G	6.13e-05
A15C G29U C67A	0.000163
U2A A3U G32A	0.0028
A14U G29A	0.000368
C11U G13U	4.88e-05

# per-item lookup of self-cleavage kobs at 2500 uM GlcN6P; items listed below
1. A12C U57A
2. U65A C71G
3. U31A U65G
4. A42G U54G
5. A33U
6. C16A A52G
7. G35U A48G C50G

Result:
6.14e-05
0.000382
0.000854
0.0229
6.53e-05
0.000102
0.000328

# per-item lookup of self-cleavage kobs at 2500 uM GlcN6P; items listed below
1. A12G U54A C68G
2. C16U A39G A48C

Result:
5.86e-05
0.000168
